Source of measurements: ChEMBL document CHEMBL4808222

measurement-notes: Aqueous solubility of the compound in pH 6.8 JP2 fluid measured after 18 hrs by shake flask method based UHPLC analysis
Format: physicochemical
measured-attribute: solubility thermodynamic at 18 h (µg/mL)
The figure you give is taken to be in µg/mL; do not add the unit.

## Input solubility thermodynamic at 18 h lookup needed for Cc1ccc(COC2CN(C(=O)[C@H]3C[C@]4(COC(=O)N4)C3)C2)cc1Cl , thanks.
## Output 330

---

measurement-notes: Drug uptake in C57BL/6J Jcl mouse assessed as brain concentration at 0.1 mg/kg, po measured after 60 mins by LC-MS/MS analysis
Type: ADME, organism-based
settings: read-out: Drug uptake
measured-attribute: concentration at 1 h

## Input concentration at 1 h lookup needed for Cc1ccc(COC2CN(C(=O)[C@H]3C[C@]4(COC(=O)N4)C3)C2)cc1Cl , thanks.
## Output 31 ng/g
